# Tested on: PASMCs
# assay-protocol: Basal intracellular Ca2+ concentration in PASMCs (Fura-2)
# Format: cell-based, rat
# run-conditions: before perfusion with the compound
Form field: basal [Ca^2+]i, Baseline (one value per entry).
Please make sure the unit comes right after the number.

- compound: "CC(=O)Nc1nnc(S(N)(=O)=O)s1 [AZ, acetazolamide]"
  tested-on: "PASMCs"
  result: "159.6 ± 10.8 nM"
- compound: "NS(=O)(=O)c1nnc(NS(=O)(=O)c2ccccc2)s1 [BZ, benzolamide]"
  tested-on: "PASMCs"
  result: "113.4 ± 7.4 nM"

Data request: Give PASMCs basal [Ca^2+]i, Baseline for CCOc1ccc2nc(S(N)(=O)=O)sc2c1 [EZ, ethoxzolamide]
Data returned: 125.5 ± 7.1 nM

Data request: Try CNS(=O)(=O)c1nnc(NC(C)=O)s1 [N-Meth-AZ] next.
Data returned: 193.4 ± 11.0 nM
